// pIC50 lookup, one value per entry
Measured on: Cannabinoid receptor 2 (Homo sapiens)
Sequence (P34972 whole entry): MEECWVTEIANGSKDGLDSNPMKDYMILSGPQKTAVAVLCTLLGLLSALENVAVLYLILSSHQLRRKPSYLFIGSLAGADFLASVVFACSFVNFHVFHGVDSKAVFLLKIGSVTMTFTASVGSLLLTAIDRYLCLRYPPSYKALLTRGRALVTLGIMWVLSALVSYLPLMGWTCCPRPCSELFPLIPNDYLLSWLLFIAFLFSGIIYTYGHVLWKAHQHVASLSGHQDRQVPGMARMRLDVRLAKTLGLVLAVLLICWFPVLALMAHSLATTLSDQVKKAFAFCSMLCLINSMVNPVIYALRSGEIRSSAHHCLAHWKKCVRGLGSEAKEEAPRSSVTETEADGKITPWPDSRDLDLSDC
Test method notes: Displacement of [3H]-CP-55,940 from recombinant human CB2R expressed in HEK293 cell membranes after 90 mins
pIC50: −log10 of the molar value.
Measurement name: pIC50

> print(dat)
                                   compound                            measured.on  measurement.name  value.modifier  quantitative.result
1  CCCc1cc(O)c2c(c1)OC(C)(C)[C@@H]1CCC(C(=O)O)=C[C@@H]21  Cannabinoid receptor 2 (Homo sapiens)             pIC50               =                 5.43
2  CCCc1cc(O)c2c(c1)OC(C)(C)[C@@H]1C[C@@H](O)C(C)=C[C@@H]21  Cannabinoid receptor 2 (Homo sapiens)             pIC50               <                 5.00
3  CCCc1cc(O)c2c(c1)OC(C)(C)[C@@H]1CCC(CO)=C[C@@H]21  Cannabinoid receptor 2 (Homo sapiens)             pIC50               =                 7.53
4  CCCc1cc(O)c2c(c1)OC(C)(C)[C@@H]1CCC(C)=C[C@@H]21 [TETRAHYDROCANNABIVARIN]  Cannabinoid receptor 2 (Homo sapiens)             pIC50               =                 7.75
5  CCCc1cc(O)c2c(c1)OC(C)(C)[C@@H]1C[C@H](O)C(C)=C[C@@H]21  Cannabinoid receptor 2 (Homo sapiens)             pIC50               =                 6.09

The measured values listed here are drawn from ChEMBL document CHEMBL4665697.
